Measured IC50 values are reported for all entries that follow.
ASSAY TARGET: Tyrosine-protein kinase BTK (Homo sapiens, UniProt Q06187, C481S)
Sequence (Q06187 2-659 C481S limits assumed): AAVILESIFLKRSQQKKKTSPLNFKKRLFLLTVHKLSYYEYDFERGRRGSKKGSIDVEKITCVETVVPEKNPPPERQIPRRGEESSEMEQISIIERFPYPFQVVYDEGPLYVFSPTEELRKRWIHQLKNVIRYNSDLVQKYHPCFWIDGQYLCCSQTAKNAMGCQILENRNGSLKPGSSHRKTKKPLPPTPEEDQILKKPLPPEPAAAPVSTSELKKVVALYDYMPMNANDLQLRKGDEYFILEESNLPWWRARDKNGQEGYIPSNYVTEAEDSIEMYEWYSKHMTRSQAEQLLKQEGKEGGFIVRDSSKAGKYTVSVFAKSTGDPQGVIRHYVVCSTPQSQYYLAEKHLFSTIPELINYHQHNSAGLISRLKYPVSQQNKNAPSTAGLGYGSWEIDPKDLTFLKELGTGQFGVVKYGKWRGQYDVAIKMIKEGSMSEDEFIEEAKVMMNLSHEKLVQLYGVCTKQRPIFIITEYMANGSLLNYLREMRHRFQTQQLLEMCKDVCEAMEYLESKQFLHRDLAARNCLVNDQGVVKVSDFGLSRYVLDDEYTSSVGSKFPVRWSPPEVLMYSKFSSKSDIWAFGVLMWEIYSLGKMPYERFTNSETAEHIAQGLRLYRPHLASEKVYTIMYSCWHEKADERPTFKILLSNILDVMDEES
MEASUREMENT NOTES: Inhibition of full-length human C-terminal His6-tagged BTK C481S mutant expressed in Sf9 insect cells using FAM-Srctide peptide as substrate preincubated for 1 hr followed by substrate addition and measured after 1 hr by TR-FRET Lanthascreen assay

{"STRUCTURE SMILES STRING": "N#CN1CCC[C@@H](n2nc(-c3ccc(Oc4ccc(Cl)cc4)cc3)c(C(N)=O)c2N)C1", "IC50": "48 nM"}
{"STRUCTURE SMILES STRING": "C=C(F)C(=O)N1CCC[C@@H](n2nc(-c3ccc(Oc4ccc(F)cc4F)cc3)c(C(N)=O)c2N)C1", "IC50": "170 nM"}
{"STRUCTURE SMILES STRING": "N#CN1CCC[C@@H](n2nc(-c3ccc(Oc4ncc(Cl)cc4F)cc3)c(C(N)=O)c2N)C1", "IC50": "230 nM"}
{"STRUCTURE SMILES STRING": "N#CN1CCC[C@@H](n2nc(-c3ccc(Oc4ccc(Cl)cn4)cc3)c(C(N)=O)c2N)C1", "IC50": "92 nM"}
{"STRUCTURE SMILES STRING": "NC(=O)c1c(-c2ccc(Oc3ccc(F)cc3F)cc2)nn([C@@H]2CCCN(C(=O)/C=C/CF)C2)c1N", "IC50": "90 nM"}
{"STRUCTURE SMILES STRING": "C/C=C/C(=O)N1CCC[C@@H](n2nc(-c3ccc(Oc4ccc(F)cc4F)cc3)c(C(N)=O)c2N)C1", "IC50": "66 nM"}
{"STRUCTURE SMILES STRING": "N#CN1CCC[C@@H](n2nc(-c3ccc(Oc4ccc(F)cc4F)cc3)c(C(N)=O)c2N)C1", "IC50": "43 nM"}
{"STRUCTURE SMILES STRING": "CN(C)C/C=C/C(=O)N1CCC[C@@H](n2nc(-c3ccc(Oc4ccc(F)cc4F)cc3)c(C(N)=O)c2N)C1", "IC50": "65 nM"}

---

// values below are T1/2; system is Tyrosine-protein kinase BTK (Homo sapiens)

{"STRUCTURE SMILES STRING": "NC(=O)c1c(-c2ccc(Oc3ccc(F)cc3F)cc2)nn([C@@H]2CCCN(C(=O)/C=C/CF)C2)c1N", "UNIT INFO": "h", "LT GT EQ": ">", "T1/2": 24}
{"STRUCTURE SMILES STRING": "N#CN1CCC[C@@H](n2nc(-c3ccc(Oc4ccc(F)cc4F)cc3)c(C(N)=O)c2N)C1", "UNIT INFO": "h", "LT GT EQ": "=", "T1/2": 6}
{"STRUCTURE SMILES STRING": "N#CN1CCC[C@@H](n2nc(-c3ccc(Oc4ncc(Cl)cc4F)cc3)c(C(N)=O)c2N)C1", "UNIT INFO": "h", "LT GT EQ": "=", "T1/2": 5}
{"STRUCTURE SMILES STRING": "N#CN1CCC[C@@H](n2nc(-c3ccc(Oc4ccc(Cl)cc4)cc3)c(C(N)=O)c2N)C1", "UNIT INFO": "h", "LT GT EQ": "=", "T1/2": 6}
{"STRUCTURE SMILES STRING": "C=CC(=O)N1CCC[C@@H](n2nc(-c3ccc(Oc4ccc(F)cc4F)cc3)c(C(N)=O)c2N)C1", "UNIT INFO": "h", "LT GT EQ": ">", "T1/2": 24}
{"STRUCTURE SMILES STRING": "C/C=C/C(=O)N1CCC[C@@H](n2nc(-c3ccc(Oc4ccc(F)cc4F)cc3)c(C(N)=O)c2N)C1", "UNIT INFO": "h", "LT GT EQ": ">", "T1/2": 24}
{"STRUCTURE SMILES STRING": "NC(=O)c1c(-c2ccc(Oc3ccc(F)cc3F)cc2)nn([C@@H]2CCCN(C(=O)/C=C/CO)C2)c1N", "UNIT INFO": "h", "LT GT EQ": ">", "T1/2": 24}
{"STRUCTURE SMILES STRING": "NC(=O)c1c(-c2ccc(Oc3ccc(F)cc3F)cc2)nn([C@@H]2CCCN(C(=O)/C=C/C(F)F)C2)c1N", "UNIT INFO": "h", "LT GT EQ": ">", "T1/2": 24}
{"STRUCTURE SMILES STRING": "N#CN1CCC[C@@H](n2nc(-c3ccc(Oc4cccc(C(F)(F)F)n4)cc3)c(C(N)=O)c2N)C1", "UNIT INFO": "h", "LT GT EQ": "=", "T1/2": 3}
{"STRUCTURE SMILES STRING": "CN(C)C/C=C/C(=O)N1CCC[C@@H](n2nc(-c3ccc(Oc4ccc(F)cc4F)cc3)c(C(N)=O)c2N)C1", "UNIT INFO": "h", "LT GT EQ": ">", "T1/2": 24}
{"STRUCTURE SMILES STRING": "N#CN1CCC[C@@H](n2nc(-c3ccc(Oc4ccc(Cl)cn4)cc3)c(C(N)=O)c2N)C1", "UNIT INFO": "h", "LT GT EQ": "=", "T1/2": 7}
{"STRUCTURE SMILES STRING": "N#CN1CCC[C@@H](n2nc(-c3ccc(Oc4ccccc4)cc3)c(C(N)=O)c2N)C1", "UNIT INFO": "h", "LT GT EQ": "=", "T1/2": 7}
{"STRUCTURE SMILES STRING": "C=C(F)C(=O)N1CCC[C@@H](n2nc(-c3ccc(Oc4ccc(F)cc4F)cc3)c(C(N)=O)c2N)C1", "UNIT INFO": "h", "LT GT EQ": ">", "T1/2": 24}

---

// values below are IC50; system is Epidermal growth factor receptor (Homo sapiens, UniProt P00533)
Sequence (P00533 whole entry): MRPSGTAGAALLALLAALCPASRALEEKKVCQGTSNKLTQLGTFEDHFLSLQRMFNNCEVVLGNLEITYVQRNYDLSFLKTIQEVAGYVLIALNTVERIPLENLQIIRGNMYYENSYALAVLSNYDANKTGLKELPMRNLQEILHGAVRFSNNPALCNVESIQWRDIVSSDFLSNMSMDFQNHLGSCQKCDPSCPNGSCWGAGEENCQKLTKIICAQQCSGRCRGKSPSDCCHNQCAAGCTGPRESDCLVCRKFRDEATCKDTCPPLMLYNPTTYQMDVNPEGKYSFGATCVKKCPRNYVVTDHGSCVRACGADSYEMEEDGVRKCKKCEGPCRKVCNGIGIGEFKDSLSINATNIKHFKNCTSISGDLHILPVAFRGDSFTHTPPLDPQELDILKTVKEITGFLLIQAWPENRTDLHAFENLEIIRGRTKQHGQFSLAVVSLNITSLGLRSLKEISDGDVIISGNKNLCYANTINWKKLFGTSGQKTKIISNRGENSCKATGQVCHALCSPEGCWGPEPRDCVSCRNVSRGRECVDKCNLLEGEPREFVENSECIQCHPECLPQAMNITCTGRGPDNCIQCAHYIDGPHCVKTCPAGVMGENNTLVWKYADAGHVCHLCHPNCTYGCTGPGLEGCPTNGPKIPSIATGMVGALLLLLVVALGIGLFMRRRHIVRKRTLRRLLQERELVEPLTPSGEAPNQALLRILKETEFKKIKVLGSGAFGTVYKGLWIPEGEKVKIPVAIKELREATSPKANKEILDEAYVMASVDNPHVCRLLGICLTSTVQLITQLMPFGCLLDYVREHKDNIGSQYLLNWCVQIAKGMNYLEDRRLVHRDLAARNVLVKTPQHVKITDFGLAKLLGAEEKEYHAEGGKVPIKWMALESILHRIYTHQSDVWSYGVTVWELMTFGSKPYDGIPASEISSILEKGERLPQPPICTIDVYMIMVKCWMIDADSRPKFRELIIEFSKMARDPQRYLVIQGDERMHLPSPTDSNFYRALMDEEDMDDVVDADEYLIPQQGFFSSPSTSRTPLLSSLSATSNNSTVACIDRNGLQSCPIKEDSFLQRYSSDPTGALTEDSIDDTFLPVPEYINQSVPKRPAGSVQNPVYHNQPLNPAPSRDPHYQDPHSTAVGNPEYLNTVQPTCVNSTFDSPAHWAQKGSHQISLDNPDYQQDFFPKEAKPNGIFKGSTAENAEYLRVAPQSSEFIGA

{"STRUCTURE SMILES STRING": "C=CC(=O)N1CCC[C@@H](n2nc(-c3ccc(Oc4ccc(F)cc4F)cc3)c(C(N)=O)c2N)C1", "IC50": "0.026 µM"}
{"STRUCTURE SMILES STRING": "N#CN1CCC[C@@H](n2nc(-c3ccc(Oc4ncc(Cl)cc4F)cc3)c(C(N)=O)c2N)C1", "IC50": "> 20 µM"}
{"STRUCTURE SMILES STRING": "C=C(C)C(=O)N1CCC[C@@H](n2nc(-c3ccc(Oc4ccc(F)cc4F)cc3)c(C(N)=O)c2N)C1", "IC50": "> 20 µM"}
{"STRUCTURE SMILES STRING": "N#CN1CCC[C@@H](n2nc(-c3ccc(Oc4cccc(C(F)(F)F)n4)cc3)c(C(N)=O)c2N)C1", "IC50": "> 20 µM"}

---

// values below are pIC50; system is UniProtKB P00533
pIC50: −log10 of the molar value.

{"STRUCTURE SMILES STRING": "N#CN1CCC[C@@H](n2nc(-c3ccc(Oc4ccc(F)cc4F)cc3)c(C(N)=O)c2N)C1", "LT GT EQ": "=", "pIC50": 4.77}
{"STRUCTURE SMILES STRING": "N#CN1CCC[C@@H](n2nc(-c3ccc(Oc4ccccc4)cc3)c(C(N)=O)c2N)C1", "LT GT EQ": "=", "pIC50": 5.77}
{"STRUCTURE SMILES STRING": "C/C=C/C(=O)N1CCC[C@@H](n2nc(-c3ccc(Oc4ccc(F)cc4F)cc3)c(C(N)=O)c2N)C1", "LT GT EQ": "<", "pIC50": 4.70}
{"STRUCTURE SMILES STRING": "N#CN1CCC[C@@H](n2nc(-c3ccc(Oc4ccc(Cl)cn4)cc3)c(C(N)=O)c2N)C1", "LT GT EQ": "=", "pIC50": 4.81}
{"STRUCTURE SMILES STRING": "CN(C)C/C=C/C(=O)N1CCC[C@@H](n2nc(-c3ccc(Oc4ccc(F)cc4F)cc3)c(C(N)=O)c2N)C1", "LT GT EQ": "=", "pIC50": 6.83}

---

pIC50: −log10 of the molar value.
// values below are pIC50; system is Tyrosine-protein kinase BTK (Homo sapiens, UniProt Q06187)
Sequence (Q06187 whole entry): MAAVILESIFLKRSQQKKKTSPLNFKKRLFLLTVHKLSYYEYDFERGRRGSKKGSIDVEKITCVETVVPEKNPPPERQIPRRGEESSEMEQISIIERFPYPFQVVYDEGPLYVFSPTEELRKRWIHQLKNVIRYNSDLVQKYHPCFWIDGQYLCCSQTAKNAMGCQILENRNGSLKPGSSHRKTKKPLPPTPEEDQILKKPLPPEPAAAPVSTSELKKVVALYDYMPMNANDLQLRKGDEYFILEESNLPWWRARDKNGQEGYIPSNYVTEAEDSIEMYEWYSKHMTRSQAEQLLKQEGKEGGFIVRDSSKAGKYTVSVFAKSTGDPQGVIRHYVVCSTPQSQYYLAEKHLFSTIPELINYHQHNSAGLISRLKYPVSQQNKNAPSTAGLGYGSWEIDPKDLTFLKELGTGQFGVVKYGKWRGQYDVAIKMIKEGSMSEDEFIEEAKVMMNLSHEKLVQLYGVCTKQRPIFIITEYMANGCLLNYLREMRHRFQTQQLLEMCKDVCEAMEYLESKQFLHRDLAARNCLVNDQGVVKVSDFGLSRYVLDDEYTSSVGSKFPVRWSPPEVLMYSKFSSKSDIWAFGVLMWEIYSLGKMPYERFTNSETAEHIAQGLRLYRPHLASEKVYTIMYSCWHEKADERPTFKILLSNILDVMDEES
REPORTED ENDPOINT: pIC50

{"STRUCTURE SMILES STRING": "N#CN1CCC[C@@H](n2nc(-c3ccc(Oc4ccccc4)cc3)c(C(N)=O)c2N)C1", "VALUE REPORTED": 9.43}
{"STRUCTURE SMILES STRING": "C=CC(=O)N1CCC[C@@H](n2nc(-c3ccc(Oc4ccc(Cl)cc4)cc3)c(C(N)=O)c2N)C1", "VALUE REPORTED": 9.74}
{"STRUCTURE SMILES STRING": "N#CN1CCC[C@@H](n2nc(-c3ccc(Oc4ccc(Cl)cn4)cc3)c(C(N)=O)c2N)C1", "VALUE REPORTED": 8.21}
{"STRUCTURE SMILES STRING": "NC(=O)c1c(-c2ccc(Oc3ccc(F)cc3F)cc2)nn([C@@H]2CCCN(C(=O)/C=C/C(F)F)C2)c1N", "VALUE REPORTED": 9.39}
{"STRUCTURE SMILES STRING": "N#CN1CCC[C@@H](n2nc(-c3ccc(Oc4ccc(F)cc4F)cc3)c(C(N)=O)c2N)C1", "VALUE REPORTED": 8.82}
{"STRUCTURE SMILES STRING": "C=C(C)C(=O)N1CCC[C@@H](n2nc(-c3ccc(Oc4ccc(F)cc4F)cc3)c(C(N)=O)c2N)C1", "VALUE REPORTED": 6.61}
{"STRUCTURE SMILES STRING": "C/C=C/C(=O)N1CCC[C@@H](n2nc(-c3ccc(Oc4ccc(F)cc4F)cc3)c(C(N)=O)c2N)C1", "VALUE REPORTED": 7.21}
{"STRUCTURE SMILES STRING": "CN(C)C/C=C/C(=O)N1CCC[C@@H](n2nc(-c3ccc(Oc4ccc(F)cc4F)cc3)c(C(N)=O)c2N)C1", "VALUE REPORTED": 8.43}
{"STRUCTURE SMILES STRING": "C=CC(=O)N1CCC[C@@H](n2nc(-c3ccc(Oc4ccc(F)cc4F)cc3)c(C(N)=O)c2N)C1", "VALUE REPORTED": 9.60}
{"STRUCTURE SMILES STRING": "NC(=O)c1c(-c2ccc(Oc3ccc(F)cc3F)cc2)nn([C@@H]2CCCN(C(=O)/C=C/CF)C2)c1N", "VALUE REPORTED": 8.57}

Recorded values, source ChEMBL document CHEMBL4382291.
